Below, each of the binders is paired with its reported Ki value.
molecular target: HIV-1 reverse transcriptase, heterodimeric p66/p51 (HIV-1), P03366; test: RT polymerase inhibition assay, Ki from Dixon plot
# value in µM; strip the unit string

binder: GTKALTEVAPLTEEAE (modifications not checked) [P10]
readout unit: µM
Ki: 7.3
//
binder: GTKALTEVIPLAEEAE (modifications not checked) [P13]
readout unit: µM
Ki: 10.2

Query: Query (binder): GTKALAEVIPLTEEAE (modifications not checked) [P7] ; field requested: Ki
Reply: 13.5

Source listed as patent US20110294728A1.
